Origin of the recorded values: PubChem BioAssay AID1851

molecular target: Cytochrome P450 2C9 (Homo sapiens); test: Cytochrome panel assay with activity outcomes; conditions: recombinant CYP, pro-luciferin dealkylation, luminescence, p450-cyp2c9; series mostly up to 57.1 µM; further: on the % scale 0 is the no-effect control and ±100 the full control effect
Hit rate of the full screen: of about 16,000 compounds, about 4,000 (25%) were called active. Another 26% or so got no clear call; they are omitted. Not all results are given here.
# activity, negative = inhibition per entry

Sample answers from the record:
| Molecule | Tested System | Result Value |
| --- | --- | --- |
| Cc1cccc(CNc2ncncc2-c2cccnc2)c1 | Cytochrome P450 2C9 (Homo sapiens) | 1.46% [at 2.29 µM] (inactive) |
| CO[C@@H]1COC(=O)[C@H](CCSC)NC(=O)C/C=C\[C@@H](C)COC(=O)[C@@H]2CCCN2C(=O)C/C=C\[C@H]1C | Cytochrome P450 2C9 (Homo sapiens) | 13.2% [at 11.4 µM] (inactive) |
| COc1cccc(-c2nc(NCc3cccnc3)c3ccccc3n2)c1 | Cytochrome P450 2C9 (Homo sapiens) | -29.9% [at 2.29 µM] (inactive) |
| CN(C)CCCn1c2ccccc2c2cnccc21 | Cytochrome P450 2C9 (Homo sapiens) | 4.43% [at 11.4 µM] (inactive) |
| COC(=O)C/C=C\[C@H](C)[C@@H](OC)c1ccccc1Br | Cytochrome P450 2C9 (Homo sapiens) | -6.68% [at 11.4 µM] (inactive) |
| C[C@@]12CC(=O)[C@@H]3[C@@H](CCC4=CC(=O)CC[C@]43C)[C@@H]1CC=C2CC(=O)O | Cytochrome P450 2C9 (Homo sapiens) | 4.34% [at 11.4 µM] (inactive) |
| Cc1cc(C)c(-c2cc([C@H](C)O/N=C3/[C@H]4OC4[C@@H](O)[C@H]4[C@H]3CCn3c(=O)n(-c5ccccc5)c(=O)n34)on2)c(C)c1 (some centres undefined) | Cytochrome P450 2C9 (Homo sapiens) | -29.1% [at 11.4 µM] (inactive) |
| COc1ccccc1-c1nc(NCc2cccnc2)c2ccccc2n1 | Cytochrome P450 2C9 (Homo sapiens) | 5.64% [at 2.29 µM] (inactive) |
| c1ccc(Nc2nc(-c3cccnc3)nc3ccccc23)cc1 | Cytochrome P450 2C9 (Homo sapiens) | -0.938% [at 2.29 µM] (inactive) |
| O=C1[C@H]2[C@H]3[C@H](O)[C@H](O)C/C(=N/OC[C@@H](O)COCc4ccco4)[C@@H]3CC[C@@H]2C(=O)N1C1CCCCC1 | Cytochrome P450 2C9 (Homo sapiens) | -9.96% [at 11.4 µM] (inactive) |

// field: activity, negative = inhibition; key: `COc1cccc(-c2nc(NCc3cnc(C)cn3)c3ccccc3n2)c1` ; value = 0.563% [at 2.29 µM] (inactive)

According to the records, this molecule NC(N)=N[C@@H]1C(O)[C@H](N=C(N)N)[C@@H](O)C(O)[C@H]1O (some centres undefined) displays activity, negative = inhibition of 13.6% [at 11.4 µM] (inactive)

activity, negative = inhibition recorded for this molecule, `CC1(C)O[C@@H]2O[C@H]([C@H](O)CO/N=C3/[C@H]4O[C@@H]4[C@@H](O)[C@H]4[C@H]3CCn3c(=O)n(-c5ccccc5)c(=O)n34)[C@@H](O)[C@@H]2O1` , is 15.4% [at 11.4 µM] (inactive)

According to the records, this molecule `C/C(CCC(=O)OC[C@@H]1O[C@H](C#Cc2ccccc2)C=C[C@@H]1Oc1ccc(C)cc1)=N/O[C@@H](C)CN1CCCCc2nc(C)c(C)cc21` displays activity, negative = inhibition of -2.52% [at 11.4 µM] (inactive)

// activity, negative = inhibition value for `COC(=O)C/C=C\[C@@H](C)[C@@H](CO)NS(=O)(=O)c1ccc(C)cc1` : -7.12% [at 11.4 µM] (inactive)
